The measured values listed here are drawn from patent US20210355194A1.

target: T1, Acro SARS-CoV-2 (COVID-19) S1 protein (SARS-CoV-2, UniProt P0DTC2 16-685); assay: SPR
T1 construct: also called SARS-CoV-2 S1
Recorded pKd by entry
For clarity, pKd is expressed as the negative log10 of concentration in mol/L.

variant 6-54 (Fc fusion) VHH: EVQLVESGGGLVQPGGSLRLSCAASGFEFENHWMGWFRQAPGKEREYVAHITAGGLSNYADSVKGRFTISADNSKNTAYLQMNSLKPEDTAVYYCGRHWGIYDSSGFSSFDYWGQGTLVTVSS	6.84
variant 6-75 (Fc fusion) VHH: EVQLVESGGGLVQPGGSLRLSCAASGGTFSTYWMGWFRQAPGKEREFVAAISRSGGNTYYADSVKGRFTISADNSKNTAYLQMNSLKPEDTAVYYCVRHSGTDGDSSFDYWGQGTLVTVSS	6.74
variant 6-84 (Fc fusion) VHH: EVQLVESGGGLVQPGGSLRLSCAASGFTPDDYAMGWFRQAPGKEREFVAAINSGGSYTYYADSVKGRFTISADNSKNTAYLQMNSLKPEDTAVYYCARDRGPWGQGTLVTVSS	7.08

Challenge: pKd lookup needed for variant 5-13 (Fc fusion) VHH: EVQLVESGGGLVQPGGSLRLSCAASGFTFDYYTMGWFRQAPGKEREFVAAIRSSGGLFYADSVKGRFTISADNSKNTAYLQMNSLKPEDTAVYYCAAYLDGYSGSWGQGTLVTVSS , thanks.
Response given: 7.43
